Entries annotated with measured pIC50
System: various mutants of kinase EGFR (BaF3 cell lines stably transfected with kinase) (Homo sapiens, UniProt P00533, L858R)
Construct: expressed in transfected cells; host or cells: BaF3
Sequence (P00533 25-1210 L858R): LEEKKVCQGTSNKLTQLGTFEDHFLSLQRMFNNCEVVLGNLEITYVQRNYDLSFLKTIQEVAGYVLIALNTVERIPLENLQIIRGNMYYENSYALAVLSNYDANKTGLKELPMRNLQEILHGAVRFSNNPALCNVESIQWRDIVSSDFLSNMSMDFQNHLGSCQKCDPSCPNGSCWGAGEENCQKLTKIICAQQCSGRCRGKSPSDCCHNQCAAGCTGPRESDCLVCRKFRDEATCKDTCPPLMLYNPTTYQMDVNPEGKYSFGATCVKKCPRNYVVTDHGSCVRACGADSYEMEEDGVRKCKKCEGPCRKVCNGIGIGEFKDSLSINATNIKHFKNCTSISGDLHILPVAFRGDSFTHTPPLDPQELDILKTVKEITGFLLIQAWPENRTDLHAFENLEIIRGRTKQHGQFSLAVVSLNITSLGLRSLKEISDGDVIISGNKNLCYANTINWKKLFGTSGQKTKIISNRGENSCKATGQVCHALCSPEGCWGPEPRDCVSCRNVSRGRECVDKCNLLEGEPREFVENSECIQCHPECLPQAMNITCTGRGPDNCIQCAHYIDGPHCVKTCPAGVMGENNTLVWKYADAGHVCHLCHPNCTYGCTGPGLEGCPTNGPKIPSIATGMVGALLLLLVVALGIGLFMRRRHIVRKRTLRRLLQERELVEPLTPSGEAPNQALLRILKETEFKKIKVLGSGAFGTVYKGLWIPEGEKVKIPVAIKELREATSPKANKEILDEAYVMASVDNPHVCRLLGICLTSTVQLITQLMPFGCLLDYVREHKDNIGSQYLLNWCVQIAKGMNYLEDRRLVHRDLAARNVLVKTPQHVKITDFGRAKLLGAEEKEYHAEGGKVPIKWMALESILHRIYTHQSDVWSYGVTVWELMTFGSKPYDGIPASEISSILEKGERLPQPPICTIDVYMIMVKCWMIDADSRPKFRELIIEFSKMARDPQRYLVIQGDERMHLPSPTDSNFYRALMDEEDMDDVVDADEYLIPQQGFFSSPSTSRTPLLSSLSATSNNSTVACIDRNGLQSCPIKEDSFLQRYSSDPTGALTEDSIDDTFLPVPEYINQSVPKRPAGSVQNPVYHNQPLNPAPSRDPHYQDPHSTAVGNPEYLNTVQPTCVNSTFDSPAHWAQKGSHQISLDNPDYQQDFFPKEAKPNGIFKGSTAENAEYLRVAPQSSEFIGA
Assay overview: Growth inhibitory activity of compounds on BaF3 cell lines stably transfected with kinase (MTS, 48 h)
Assay type: cell-based
Recorded conditions: BaF3 cell line stably transfected with EGFR L858R, read-out: L858R growth inhibitory activity IC50
pIC50: −log10 of the molar value.

| Molecule | Recorded measurement |
| --- | --- |
| COc1cc(N2CCC(N3CCN(C)CC3)CC2)c(C(C)C)cc1Nc1nccc(Nc2ccc3nccnc3c2N(C)S(C)(=O)=O)n1 [Compound I-342] | 6.30 to 7.30 |

### Prompt State its pIC50 for this molecule: COc1ccc(N2CCC(O)CC2)cc1Nc1nc(Nc2ccc3nccnc3c2N(C)S(C)(=O)=O)c2sccc2n1 [II-1-45]
### Response 6.30 to 7.30

### Prompt State its pIC50 for this molecule: COc1cc(N2CCC(N3CCN(C)CC3)CC2)c(C(C)C)cc1Nc1ncc(Br)c(Nc2ccc3nccnc3c2NS(C)(=O)=O)n1 [Compound I-406]
### Response 6.30 to 7.30

### Prompt State its pIC50 for this molecule: CCc1cc(Nc2ncc(C)c(Nc3ccc4nccnc4c3N(C)S(C)(=O)=O)n2)c(OC)cc1N1CCN(C)CC1 [Compound I-315]
### Response ≥ 7.30

### Prompt State its pIC50 for this molecule: CCc1cc(Nc2nc(Nc3ccc4nccnc4c3N(C)S(C)(=O)=O)c3[nH]ccc3n2)c(OC)cc1N1CCC(N(C)C)CC1 [II-1-32]
### Response 5.60 to 6.30

### Prompt State its pIC50 for this molecule: CCc1cc(Nc2nc(Nc3ccc4nccnc4c3N(C)S(C)(=O)=O)c3cc[nH]c3n2)c(OC(F)(F)F)cc1N1CCC(N2CCN(C)CC2)CC1 [II-2-8]
### Response 6.30 to 7.30

* * *

System: various mutants of kinase EGFR (BaF3 cell lines stably transfected with kinase) (Homo sapiens, UniProt P00533, L858R/T790M)
Construct: expressed in transfected cells; host or cells: BaF3
Sequence (P00533 25-1210 T790M/L858R): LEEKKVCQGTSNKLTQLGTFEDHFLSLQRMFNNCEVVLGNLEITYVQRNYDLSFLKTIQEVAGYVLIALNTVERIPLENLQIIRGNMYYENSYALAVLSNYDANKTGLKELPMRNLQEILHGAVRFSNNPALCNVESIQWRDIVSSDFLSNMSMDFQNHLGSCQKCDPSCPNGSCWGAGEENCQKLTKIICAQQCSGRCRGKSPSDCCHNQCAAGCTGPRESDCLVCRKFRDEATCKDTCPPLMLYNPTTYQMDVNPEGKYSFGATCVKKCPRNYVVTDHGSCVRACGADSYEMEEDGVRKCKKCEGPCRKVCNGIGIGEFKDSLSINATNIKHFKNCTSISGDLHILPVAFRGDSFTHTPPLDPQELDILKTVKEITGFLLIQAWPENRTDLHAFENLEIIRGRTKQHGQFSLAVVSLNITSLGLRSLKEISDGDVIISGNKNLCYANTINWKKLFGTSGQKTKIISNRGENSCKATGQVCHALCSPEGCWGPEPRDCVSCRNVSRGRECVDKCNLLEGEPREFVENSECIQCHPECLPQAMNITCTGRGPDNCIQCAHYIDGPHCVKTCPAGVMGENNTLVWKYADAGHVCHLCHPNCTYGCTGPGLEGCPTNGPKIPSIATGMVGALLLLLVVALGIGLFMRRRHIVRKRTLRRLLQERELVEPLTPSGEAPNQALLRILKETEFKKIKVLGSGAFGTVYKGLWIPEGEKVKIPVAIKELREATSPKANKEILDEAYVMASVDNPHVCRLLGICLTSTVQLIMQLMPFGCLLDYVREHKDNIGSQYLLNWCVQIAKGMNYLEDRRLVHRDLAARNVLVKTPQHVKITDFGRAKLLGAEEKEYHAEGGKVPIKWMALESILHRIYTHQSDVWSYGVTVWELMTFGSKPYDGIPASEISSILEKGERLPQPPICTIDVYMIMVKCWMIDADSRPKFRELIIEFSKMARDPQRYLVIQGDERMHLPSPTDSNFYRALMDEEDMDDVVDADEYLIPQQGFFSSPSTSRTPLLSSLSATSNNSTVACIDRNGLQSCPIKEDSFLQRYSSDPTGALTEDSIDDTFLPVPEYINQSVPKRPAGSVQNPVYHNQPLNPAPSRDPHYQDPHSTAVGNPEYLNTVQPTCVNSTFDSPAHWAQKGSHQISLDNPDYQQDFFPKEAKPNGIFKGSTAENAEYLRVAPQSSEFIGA
Assay overview: Growth inhibitory activity of compounds on BaF3 cell lines stably transfected with kinase (MTS, 48 h)
Type: cell-based
Recorded conditions: BaF3 cell line stably transfected with EGFR L858R/T790M, read-out: L858R/ T790M growth inhibitory activity IC50
Experimental readout: IC50

| Compound string | IC50 |
| --- | --- |
| COc1ccc(N2CCC(O)CC2)cc1Nc1ncc(Br)c(Nc2ccc3nccnc3c2N(C)S(=O)(=O)C(F)(F)F)n1 | 50 to 500 nM |
| COc1cc(N2CCC(N3CCN(C)CC3)CC2)ccc1Nc1ncc(C(C)C)c(Nc2ccc3nccnc3c2N(C)S(C)(=O)=O)n1 | 50 to 500 nM |

### Prompt State its IC50 for this compound: `CCc1cc(Nc2ncc(C(C)C)c(Nc3ccc4nccnc4c3N(C)S(C)(=O)=O)n2)c(OC)cc1N1CCC(N(C)C)CC1`
### Response ≤ 50 nM

* * *

System: various mutants of kinase EGFR (BaF3 cell lines stably transfected with kinase) (Homo sapiens, UniProt P00533, T790M, form not given)
Construct: other: BaF3 cells stably transfected with EGFR Δ19Del/T790M; MTS, 48 h; other: BaF3 cell line stably transfected with EGFR Δ19Del/T790M; MTS, 48
Sequence (P00533 with tags, fused parts or gaps DEL746-750/T790M, form open): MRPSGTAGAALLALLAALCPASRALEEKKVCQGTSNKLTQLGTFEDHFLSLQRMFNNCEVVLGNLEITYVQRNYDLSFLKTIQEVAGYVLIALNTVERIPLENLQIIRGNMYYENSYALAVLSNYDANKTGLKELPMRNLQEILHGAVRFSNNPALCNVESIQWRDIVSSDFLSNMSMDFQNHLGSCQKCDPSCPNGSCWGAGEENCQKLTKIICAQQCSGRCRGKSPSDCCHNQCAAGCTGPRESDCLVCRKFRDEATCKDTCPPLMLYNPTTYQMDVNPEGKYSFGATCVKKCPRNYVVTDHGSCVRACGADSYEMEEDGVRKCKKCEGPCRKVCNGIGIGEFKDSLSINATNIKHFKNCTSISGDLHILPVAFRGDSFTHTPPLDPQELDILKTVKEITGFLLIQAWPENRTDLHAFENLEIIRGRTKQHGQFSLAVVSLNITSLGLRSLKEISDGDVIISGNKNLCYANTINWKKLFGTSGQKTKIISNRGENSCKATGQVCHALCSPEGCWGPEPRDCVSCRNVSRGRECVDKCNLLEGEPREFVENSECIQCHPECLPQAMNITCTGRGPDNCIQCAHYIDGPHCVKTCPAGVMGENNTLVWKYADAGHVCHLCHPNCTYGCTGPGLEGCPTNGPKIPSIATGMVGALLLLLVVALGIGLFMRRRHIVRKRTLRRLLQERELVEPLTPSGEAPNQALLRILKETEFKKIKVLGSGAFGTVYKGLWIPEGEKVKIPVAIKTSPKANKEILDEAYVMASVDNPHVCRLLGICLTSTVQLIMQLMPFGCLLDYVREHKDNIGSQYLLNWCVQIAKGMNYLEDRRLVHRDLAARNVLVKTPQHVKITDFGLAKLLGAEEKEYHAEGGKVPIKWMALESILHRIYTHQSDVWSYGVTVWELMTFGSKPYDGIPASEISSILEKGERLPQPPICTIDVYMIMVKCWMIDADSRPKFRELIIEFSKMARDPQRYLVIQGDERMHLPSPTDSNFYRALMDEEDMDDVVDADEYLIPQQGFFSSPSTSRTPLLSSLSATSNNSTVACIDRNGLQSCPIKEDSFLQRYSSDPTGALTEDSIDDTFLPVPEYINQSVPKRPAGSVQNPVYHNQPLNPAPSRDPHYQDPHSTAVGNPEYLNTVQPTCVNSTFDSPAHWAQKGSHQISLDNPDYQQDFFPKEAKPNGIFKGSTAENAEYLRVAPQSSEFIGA
Assay overview: Growth inhibitory activity of compounds on BaF3 cell lines stably transfected with kinase (MTS, 48 h)
Format: cell-based
Recorded conditions: BaF3 cells stably transfected with EGFR Δ19Del/T790M, read-out: IC50, growth inhibition, Δ19Del/T790M
pIC50: −log10 of the molar value.
Experimental readout: pIC50

Completed entries (count: 8):
| Molecule | Experimental readout | Recorded measurement |
| --- | --- | --- |
| COc1nc(N2CCC(N3CCN(C)CC3)CC2)ccc1Nc1ncc(C(F)(F)F)c(Nc2ccc3nccnc3c2N(C)S(C)(=O)=O)n1 | pIC50 | 6.30 to 7.30 |
| CCN(c1c(Nc2nc(Nc3cc(C)c(N4CCC(N(C)C)C4)cc3OC)ncc2Cl)ccc2nccnc12)S(C)(=O)=O (stereo not shown) | pIC50 | ≥ 7.30 |
| CCc1cc(Nc2ncc(Br)c(Nc3ccc4nccnc4c3N(C)S(=O)(=O)C(F)(F)F)n2)c(OC)nc1N1CCC(N2CCN(C)CC2)CC1 | pIC50 | 6.30 to 7.30 |
| CCN(c1c(Nc2nc(Nc3cc(C)c(N4CCC(N5CCN(C)CC5)CC4)nc3OC)ncc2Cl)ccc2nccnc12)S(C)(=O)=O | pIC50 | 6.30 to 7.30 |
| CN1CCc2cc(OC(F)(F)F)c(Nc3ncc(Br)c(Nc4ccc5nccnc5c4N(C)S(C)(=O)=O)n3)cc2C1 | pIC50 | 5.60 to 6.30 |
| COc1ccc(CN2CCN(C)CC2)cc1Nc1ncc(Br)c(Nc2ccc3nccnc3c2N(C)S(C)(=O)=O)n1 | pIC50 | 5.60 to 6.30 |
| COc1cc(N2CCOCC2)ccc1Nc1ncc(Br)c(Nc2ccc3nccnc3c2N(C)S(C)(=O)=O)n1 | pIC50 | 6.30 to 7.30 |
| CCc1cc(Nc2ncc(Br)c(Nc3ccc4nccnc4c3N(C)S(=O)(=O)CC)n2)c(OC)cc1N1CCC(N2CCN(C)CC2)CC1 | pIC50 | ≥ 7.30 |

### Prompt State its pIC50 for this molecule: `COc1ccc(C(=O)N2CCN(C)CC2)cc1Nc1ncc(Br)c(Nc2ccc3nccnc3c2N(C)S(C)(=O)=O)n1`
### Response 6.30 to 7.30

### Prompt State its pIC50 for this molecule: `CCN(c1c(Nc2nc(Nc3ccc(N4CCC(N5CCN(C)CC5)CC4)nc3OC)ncc2Cl)ccc2nccnc12)S(C)(=O)=O`
### Response 6.30 to 7.30

### Prompt State its pIC50 for this molecule: `C=Cc1cc(Nc2ncc(Br)c(Nc3ccc4nccnc4c3N(C)S(=O)(=O)C(F)(F)F)n2)c(OC(F)(F)F)cc1N1CCC(N2CCN(C)CC2)CC1`
### Response 6.30 to 7.30

* * *

System: various mutants of kinase EGFR (BaF3 cell lines stably transfected with kinase) (Homo sapiens, UniProt P00533, L858R)
Construct: expressed in transfected cells; host or cells: BaF3
Assay overview: Growth inhibitory activity of compounds on BaF3 cell lines stably transfected with kinase (MTS, 48 h)
Assay type: cell-based
Recorded conditions: BaF3 cell line stably transfected with EGFR L858R, read-out: L858R growth inhibitory activity IC50
Experimental readout: IC50

Completed entries (count: 5):
| Compound string | IC50 |
| --- | --- |
| C=Cc1cc(Nc2nc(Nc3ccc4nccnc4c3N(C)S(C)(=O)=O)c3[nH]ccc3n2)c(OC(F)(F)F)cc1N1CCC(N2CCN(C)CC2)CC1 | 50 to 500 nM |
| CCc1cc(Nc2ncc(CC)c(Nc3ccc4nccnc4c3N(C)S(C)(=O)=O)n2)ccc1N1CCC(N2CCN(C)CC2)CC1 | ≤ 50 nM |
| COc1nc(N2CCC(N3CCN(C)CC3)CC2)ccc1Nc1nc(Nc2ccc3nccnc3c2N(C)S(C)(=O)=O)c2[nH]ccc2n1 | 500 to 2500 nM |
| COc1cc(N2CCC(N3CCN(C)CC3)CC2)c(C)cc1Nc1nc(Nc2ccc3nccnc3c2N(C)S(C)(=O)=O)c2cc[nH]c2n1 | 50 to 500 nM |
| COc1ccc(N2CCC(O)CC2)cc1Nc1ncc(Cl)c(Nc2ccc3nccnc3c2N(C)S(=O)(=O)C(F)(F)F)n1 | 50 to 500 nM |

From here, focus on the item given below.
### Prompt State its IC50 for this compound: `COc1cc(N2CCC(N3CCN(C)CC3)CC2)c(CC2CC2)cc1Nc1ncc(Br)c(Nc2ccc3nccnc3c2NS(C)(=O)=O)n1`
### Response ≤ 50 nM

* * *

System: various mutants of kinase EGFR (BaF3 cell lines stably transfected with kinase) (Homo sapiens, UniProt P00533, C797S/L858R/T790M)
Construct: expressed in transfected cells; host or cells: BaF3
Sequence (P00533 25-1210 T790M/C797S/L858R): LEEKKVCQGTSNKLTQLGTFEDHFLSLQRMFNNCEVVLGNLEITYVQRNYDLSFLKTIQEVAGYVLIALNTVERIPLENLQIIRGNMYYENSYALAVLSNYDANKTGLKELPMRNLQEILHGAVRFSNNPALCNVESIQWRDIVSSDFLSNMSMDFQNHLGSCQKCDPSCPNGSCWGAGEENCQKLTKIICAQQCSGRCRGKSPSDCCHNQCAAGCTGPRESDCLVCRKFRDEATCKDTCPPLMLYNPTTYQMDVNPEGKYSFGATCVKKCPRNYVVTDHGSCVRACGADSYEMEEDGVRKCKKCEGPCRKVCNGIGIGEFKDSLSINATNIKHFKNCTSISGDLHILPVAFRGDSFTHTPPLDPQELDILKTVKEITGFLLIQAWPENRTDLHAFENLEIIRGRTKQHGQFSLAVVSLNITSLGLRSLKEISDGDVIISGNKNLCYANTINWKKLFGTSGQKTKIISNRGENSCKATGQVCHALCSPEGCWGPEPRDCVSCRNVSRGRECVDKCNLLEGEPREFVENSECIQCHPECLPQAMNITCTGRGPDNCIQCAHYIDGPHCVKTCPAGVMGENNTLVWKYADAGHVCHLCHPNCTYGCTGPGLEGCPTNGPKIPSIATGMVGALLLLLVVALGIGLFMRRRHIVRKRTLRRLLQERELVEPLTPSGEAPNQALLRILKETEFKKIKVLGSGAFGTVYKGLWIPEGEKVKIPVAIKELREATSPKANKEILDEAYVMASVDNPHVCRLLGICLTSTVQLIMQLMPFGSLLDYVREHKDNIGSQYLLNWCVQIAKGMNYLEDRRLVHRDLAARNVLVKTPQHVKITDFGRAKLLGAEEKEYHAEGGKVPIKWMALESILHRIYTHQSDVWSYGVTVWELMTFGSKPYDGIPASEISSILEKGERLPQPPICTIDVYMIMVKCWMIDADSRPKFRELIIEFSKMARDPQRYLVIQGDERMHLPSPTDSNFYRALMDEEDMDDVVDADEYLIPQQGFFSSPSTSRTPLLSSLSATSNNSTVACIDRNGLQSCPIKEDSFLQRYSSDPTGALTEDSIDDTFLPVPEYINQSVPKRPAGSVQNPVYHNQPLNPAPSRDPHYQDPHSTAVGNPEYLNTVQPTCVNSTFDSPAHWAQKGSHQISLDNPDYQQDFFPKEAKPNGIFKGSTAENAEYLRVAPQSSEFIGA
Assay overview: Growth inhibitory activity of compounds on BaF3 cell lines stably transfected with kinase (MTS, 48 h)
Type: cell-based
Recorded conditions: BaF3 cell line stably transfected with EGFR L858R/T790M/C797S, read-out: L858R/T790M/ C797S growth inhibitory activity IC50
pIC50: −log10 of the molar value.
Experimental readout: pIC50

Completed entries (count: 3):
| Compound string | pIC50 |
| --- | --- |
| CN1CCN(C2CCN(c3ccc(Nc4nc(Nc5ccc6nccnc6c5N(C)S(C)(=O)=O)c5[nH]ccc5n4)c(OC(F)(F)F)c3)CC2)CC1 | 5.60 to 6.30 |
| COc1cc(N2CCC(N(C)C)CC2)c(C)cc1Nc1nc(Nc2ccc3nccnc3c2N(C)S(C)(=O)=O)c2[nH]ccc2n1 | 5.60 to 6.30 |
| CCc1cc(Nc2ncc(Br)c(Nc3ccc4nccnc4c3N(C)S(C)(=O)=O)n2)c(OC)cc1F | 6.30 to 7.30 |

### Prompt State its pIC50 for this compound: `CN1CCN(C2CCN(c3ccc(Nc4ncc(Br)c(Nc5ccc6nccnc6c5NS(C)(=O)=O)n4)c(F)c3F)CC2)CC1`
### Response ≥ 7.30

### Prompt State its pIC50 for this compound: `COc1cc(N2CCC(N3CCN(C)CC3)CC2)c(C)cc1Nc1nc(Nc2ccc3nccnc3c2N(C)S(C)(=O)=O)c2ccsc2n1`
### Response 5.60 to 6.30

### Prompt State its pIC50 for this compound: `CN1CCN(C2CCN(c3c(F)cc(Nc4ncc(Br)c(Nc5ccc6nccnc6c5NS(C)(=O)=O)n4)cc3F)CC2)CC1`
### Response 6.30 to 7.30

### Prompt State its pIC50 for this compound: `CCc1cnc(Nc2cc(F)c(N3CCC(N4CCN(C)CC4)CC3)c(F)c2)nc1Nc1ccc2nccnc2c1N(C)S(C)(=O)=O`
### Response ≥ 7.30
